Measured on: RUNX1 R139Q (Homo sapiens, UniProt Q01196 1-181, R139Q)
Sequence (Q01196 1-181 R139Q): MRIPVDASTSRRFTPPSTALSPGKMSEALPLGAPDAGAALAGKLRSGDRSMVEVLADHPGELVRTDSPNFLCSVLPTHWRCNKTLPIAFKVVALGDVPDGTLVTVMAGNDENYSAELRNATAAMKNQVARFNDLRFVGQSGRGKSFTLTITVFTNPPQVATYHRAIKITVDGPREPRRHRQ
Test details: ITC; without CBFβ; ITC: 20 uM RUNX1 in cell, 100 uM DNA in syringe, 10 mM HEPES-NaOH pH 7.5, 180 mM NaCl, 0.005% Tween 20; temperature stated as 277 K (Methods) but 25 °C (Results)
Test context: protein: recombinant; tags: N-terminal His6; (21 bp)
Parameter measured: pKd
One number for each entry, as −log10 of the molar value.

Recorded pKd (binder CSF-1R promoter 21 bp DNA (dsDNA) DNA 1: CAAACTCTGTGGTTGCCTTGC DNA 2: GCAAGGCAACCACAGAGTTTG ): 5.83
